assay: chemical genetic growth profiling, strain panel (AID 1159580);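 note: tested at 20 µM; growth read once vehicle control cultures reached saturation at 30 °C; 1 = growth at the plate median or of vehicle wells; lower values mean less growth of the strain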; details: S. cerevisiae deletion strains, growth OD, locus YBR279W, strain paf1, active compounds read low
Out of some 5,500 compounds screened, about 2,000 (36%) were called active. Not shown: some 18% with an inconclusive outcome. This is one part of the list.
Task for the reader: assign each of the following compounds its reported normalized growth.
Give bare numbers.

Dear reader, for each entry below, please note its normalized growth.
1. CC(=O)OCC(=O)[C@@]1(O)CCC2C3CCC4=CC(=O)CC[C@]4(C)[C@@]3(F)[C@@H](O)C[C@@]21C (stereo partly specified)
2. CC1(C)C[C@@H]2C(=O)CC[C@H]3O[C@]3(C)CC[C@H]21
3. C[N+]1(C)CCc2cc3c(cc2[C@H]1C1OC(=O)c2c1ccc1c2OCO1)OCO3 (stereo partly specified)
4. C[C@]12CCC3C(CC[C@H]4CC(=O)CC[C@]34C)C1CCC2=O (stereo partly specified)
5. Cn1cnc([N+](=O)[O-])c1Sc1ncnc2nc[nH]c12
6. CC(C(=O)O)c1ccc(N2Cc3ccccc3C2=O)cc1 (stereo unspecified)

stdout:
1. 1.02
2. 1
3. 0.997
4. 0.983
5. 1.01
6. 0.972

Source: PubChem BioAssay AID1159580
